target.entity: human androgen receptor (Homo sapiens)
Construct: expressed in transfected cells; host or cells: HEK293
Sequence (P10275 whole entry): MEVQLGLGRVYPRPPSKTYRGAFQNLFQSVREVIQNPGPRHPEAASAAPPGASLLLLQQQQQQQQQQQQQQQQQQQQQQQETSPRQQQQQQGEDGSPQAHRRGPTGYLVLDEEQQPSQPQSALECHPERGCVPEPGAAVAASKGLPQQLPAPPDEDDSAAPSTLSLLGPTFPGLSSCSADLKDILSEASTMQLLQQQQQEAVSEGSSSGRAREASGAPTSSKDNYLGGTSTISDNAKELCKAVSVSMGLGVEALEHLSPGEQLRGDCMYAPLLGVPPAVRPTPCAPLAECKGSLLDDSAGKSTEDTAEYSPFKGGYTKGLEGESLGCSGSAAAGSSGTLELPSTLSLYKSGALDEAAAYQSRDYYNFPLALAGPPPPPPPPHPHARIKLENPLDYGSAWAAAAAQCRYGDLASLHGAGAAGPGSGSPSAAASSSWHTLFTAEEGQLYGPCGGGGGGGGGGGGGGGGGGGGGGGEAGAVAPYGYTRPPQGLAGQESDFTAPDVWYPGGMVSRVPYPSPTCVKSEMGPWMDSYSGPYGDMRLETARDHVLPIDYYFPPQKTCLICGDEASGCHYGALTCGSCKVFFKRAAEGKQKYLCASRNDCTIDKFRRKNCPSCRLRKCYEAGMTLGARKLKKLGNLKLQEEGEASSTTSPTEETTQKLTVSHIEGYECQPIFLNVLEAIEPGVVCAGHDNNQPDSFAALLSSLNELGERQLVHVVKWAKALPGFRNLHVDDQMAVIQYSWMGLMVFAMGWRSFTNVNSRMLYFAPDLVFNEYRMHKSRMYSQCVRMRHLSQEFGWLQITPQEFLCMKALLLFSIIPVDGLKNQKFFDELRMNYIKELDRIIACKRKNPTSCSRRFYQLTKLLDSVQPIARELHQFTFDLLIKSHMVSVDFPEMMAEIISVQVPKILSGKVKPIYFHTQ
assay.explanation: Reporter assay of an androgen receptor responsive sequence (luciferase, transiently transfected HEK293 cells)
Assay type: cell-based
cond: 24 hours incubation, relative to activity of 100 nM DHT, read-out: AR transcriptive activity (pEC50) (converted)
attribute.measured: EC50 (nM)

Below are worked cases with known answers.
| molecule | target.entity | unit.label | data.value |
| --- | --- | --- | --- |
| Cc1oc(N(CC[C@@H]2CCCC[C@H]2O)c2ccc(C#N)cc2)nc1C(=O)NS(C)(=O)=O (racemic) | human androgen receptor (Homo sapiens) | nM | 7940 |
| Cc1sc(N(CCn2cc(C#N)cn2)Cc2ccccc2)nc1C(=O)NS(C)(=O)=O | human androgen receptor (Homo sapiens) | nM | 1000 |
| Cc1sc(N(Cc2cc(Cl)ccc2F)c2ccc(C#N)cc2)nc1C(=O)NS(C)(=O)=O | human androgen receptor (Homo sapiens) | nM | 794 |
| CS(=O)(=O)NC(=O)c1nc(N(Cc2ccccc2F)c2ccc(C#N)cc2)sc1Br | human androgen receptor (Homo sapiens) | nM | 100 |
| Cc1sc(N(CCc2ccc(C#N)cc2)Cc2ccccc2)nc1C(=O)NS(C)(=O)=O | human androgen receptor (Homo sapiens) | nM | 158 |

1. COCCCS(=O)(=O)NC(=O)c1nc(N(Cc2ccc(OC(F)F)c(Cl)c2)c2ccc(C#N)cc2)sc1C
2. Cc1sc(N(CCc2ccc(Cl)cc2)CC[C@H]2CCCC[C@@H]2O)nc1C(=O)NS(C)(=O)=O (racemic)
Prompt: Of 1 and 2 , which carries the smaller reported EC50 figure? Lab note: record the label of whichever item you select.
Response: 1
